system: Plasmodium falciparum; assay: In vitro antimalarial activity against Plasmodium falciparum W2 in human erythrocytes by [3H]hypoxanthine uptake; format: functional, organism-based; conditions: Plasmodium falciparum
REPORTED PROPERTY: IC50 (nM)

* C=C[C@H]1C[N@+]2(Cc3cc(C(C)(C)C)c(OC)c(C(C)(C)C)c3)CC[C@H]1C[C@@H]2[C@@H](OCc1ccccc1)c1ccnc2ccccc12 | 1100
* C=C[C@H]1C[N@+]2(Cc3cc(C(C)(C)C)c(OC)c(C(C)(C)C)c3)CC[C@H]1C[C@@H]2[C@@H](O)c1ccnc2ccc(OC)cc12 | 1000
* C=C[C@H]1CN2CC[C@H]1C[C@H]2[C@H](O)c1ccnc2ccc(OC)cc12 | 370
* C=CCO[C@H](c1ccnc2ccccc12)[C@@H]1C[C@@H]2CC[N@@+]1(Cc1cc(C(C)(C)C)c(OC)c(C(C)(C)C)c1)C[C@@H]2C=C | 1100

----------
tested on: Plasmodium falciparum; experiment: In vitro antimalarial activity against Plasmodium falciparum W2 in human erythrocytes by [3H]hypoxanthine uptake; format: functional, organism-based; details: Plasmodium falciparum
REPORTED PROPERTY: IC50 (nM)

A: C=CCO[C@@H](c1ccnc2ccc(OC)cc12)[C@H]1C[C@@H]2CC[N@@+]1(Cc1cc(C(C)(C)C)c(OC)c(C(C)(C)C)c1)C[C@@H]2C=C
B: C=C[C@H]1C[N@+]2(Cc3cc(C(C)(C)C)c(OC)c(C(C)(C)C)c3)CC[C@H]1C[C@H]2[C@H](OCc1ccccc1)c1ccnc2ccccc12
Q: Parameter check: reported IC50 is higher for which label, A or B ? Provide the label of your selected option as the answer.
Result: A
(A: 1200 nM, B: 520 nM)

----------
system: Plasmodium falciparum; assay: In vitro antimalarial activity against Plasmodium falciparum W2 in human erythrocytes by [3H]hypoxanthine uptake; type: functional, organism-based; settings: Plasmodium falciparum
Below, each of the compounds is paired with its reported IC50 value.
The figure you give is taken to be in nM; do not add the unit.

Below: 4 compounds and their reported IC50.
• C=C[C@H]1CN2CC[C@H]1C[C@H]2[C@H](O)c1ccnc2ccccc12 = 380
• C=C[C@H]1CN2CC[C@H]1C[C@@H]2[C@@H](O)c1ccnc2ccc(OC)cc12 = 160
• C=C[C@H]1CN2CC[C@H]1C[C@@H]2[C@@H](O)c1ccnc2ccccc12 = 220
• C=C[C@H]1C[N@+]2(Cc3cc(C(C)(C)C)c(OC)c(C(C)(C)C)c3)CC[C@H]1C[C@H]2[C@H](O)c1ccnc2ccccc12 = 510

Here is the next item to consider.
Q: Report IC50 for "C=CCO[C@H](c1ccnc2ccc(OC)cc12)[C@@H]1C[C@@H]2CC[N@@+]1(Cc1cc(C(C)(C)C)c(OC)c(C(C)(C)C)c1)C[C@@H]2C=C" please.
Result: 1000
